Read-out record for Dipeptidyl peptidase 4 (Homo sapiens, UniProt P27487): pIC50
# log scale: pIC50 equals minus log10 of the concentration in mol/L

According to the records, this compound N[C@@H](Cc1cnc[nH]1)C(=O)N1CCCC1P(=O)(Oc1ccccc1)Oc1ccccc1 (stereo partly drawn) displays pIC50 of 3.49

Record summary for N[C@@H](CO)C(=O)N1CCCC1P(=O)(Oc1ccccc1)Oc1ccccc1 (stereo partly drawn) : reported pIC50 = 3.30

# compound N[C@@H](Cc1ccccc1)C(=O)N1CCCC1P(=O)(Oc1ccccc1)Oc1ccccc1 (stereo partly drawn) ; its pIC50 = 3.85

The compound listed as NCCCC[C@H](N)C(=O)N1CCCC1P(=O)(Oc1ccccc1)Oc1ccccc1 (stereo partly drawn) shows pIC50 equal to 3.93

# credit: BindingDB's records for doi:10.1021/cc020096o
